Tested on: amylase
method: Amylase activity retention in detergent use solution (4000 ppm, 5 GPG water; ethylidene substrate EPS, HEPES buffer pH 8.0)
Type: biochemical
measurement context: base formula, phosphonate 0.6 wt-%, use solution at 120º F., time 20 min
recorded endpoint: Relative Amylase Enzyme Activity (%)
Please state the figure in %; there is no need to write the unit.

Query: Record request: Relative Amylase Enzyme Activity value, item O=P(O)(O)CN(CP(=O)(O)O)CP(=O)(O)O [ATMP, Aminotri (methylene phosphonic acid)]
Response: 80.12

Query: Please look up its Relative Amylase Enzyme Activity: O=C(O)CCC(CC(=O)O)(C(=O)O)P(=O)(O)O (stereo not shown) [PBTC, Phosphonebutane tricarboxylic acid]
Response: 106.52

Query: Fill in: Relative Amylase Enzyme Activity of CC(O)(P(=O)(O)O)P(=O)(O)O [HEDP] is ___
Response: 91.20

Query: Record request: Relative Amylase Enzyme Activity value, item NCP(=O)(O)O [AMPA, Aminomethyl phosphonic acid]
Response: 85.05
